Each entry below lists one item and its recorded Papp A→B at 60 min, 10 μM value.
experiment: Caco-2 cell permeability assay (A-B and B-A); type: in vitro ADME; settings: human, A-B direction

[[record]]
compound_string = "CN(C(=O)[C@@H]1[C@@H](Cc2ccnc(N)c2)C(=O)N1C(=O)N[C@@H](C1CC1)C(F)(F)F)c1ncccn1"
experimental_value = "11 to 30 ×10⁻⁶ cm/s"

[[record]]
compound_string = "CC[C@@H](NC(=O)N1C(=O)[C@H](Cc2ccnc(N)c2)[C@H]1C(=O)N(C)c1ncccn1)c1cccc(Cl)c1"
experimental_value = "11 to 30 ×10⁻⁶ cm/s"

[[record]]
compound_string = "CC[C@@H](NC(=O)N1C(=O)[C@H](Cc2ccnc(N)c2)[C@H]1C(=O)N(C)c1ccccc1)C1CCCCC1"
experimental_value = "11 to 30 ×10⁻⁶ cm/s"

[[record]]
compound_string = "Cc1ccccc1N(C)C(=O)[C@@H]1[C@@H](Cc2ccnc(N)c2)C(=O)N1C(=O)N[C@@H](C1CCCCC1)C(F)(F)F"
experimental_value = "11 to 30 ×10⁻⁶ cm/s"


Papp A→B at 60 min, 10 μM for CC[C@@H](NC(=O)N1C(=O)[C@H](Cc2ccnc(N)c2)[C@H]1C(=O)N(C)c1ncncn1)c1ccccc1 is ≤ 10 ×10⁻⁶ cm/s
